Assign GI50 to each entry below.
Test system: SR
EXPERIMENT_NOTES: NCI tumour cell line growth inhibition, 48 h
Active and inactive are the calls of the source. No stated cut-off is given here; in the data, active = GI50 up to about 1.1 µM and inactive = higher.

Ask: Give its GI50 value. Item: Cc1ccc(OCC2OC(n3cnc4c(Cl)nc(Cl)nc43)CC2Oc2ccc(C)cc2)cc1 (stereo not given)
Reply: 2.49 µM (inactive)

Ask: Also need COC1(C)CCC(OS(C)(=O)=O)CO1 (stereo not given) , thanks.
Reply: > 100 µM (inactive)

Ask: Also need Cn1c(NC(=O)NC23CC4CC(CC(C4)C2)C3)nc2ccccc21 , thanks.
Reply: > 100 µM (inactive)

Ask: Also need CCc1nc(N)nc(N)c1-c1ccc([N+](=O)[O-])c(NCc2ccccc2)c1 , thanks.
Reply: 10.3 µM (inactive)

Ask: Also need Cc1cc([N+](=O)[O-])c(S(=O)(=O)c2ccccc2)c([N+](=O)[O-])c1 , thanks.
Reply: 4.59 µM (inactive)

Ask: Also need N=C(N)NS(=O)(=O)c1ccc(N/N=C2/CCOC2=O)cc1 , thanks.
Reply: 70.6 µM (inactive)

Ask: Also need Nc1nc(CCl)nc(Nc2ccccc2)n1 , thanks.
Reply: 12.9 µM (inactive)

Ask: Also need O=c1oc2ccc(Cl)cc2cc1-c1cn2ccsc2n1 , thanks.
Reply: 24.8 µM (inactive)

Ask: Also need COc1cccc(/C=C2\N=C(Cl)OC2=O)c1O , thanks.
Reply: > 88.9 µM (inactive)

Ask: Also need CC1OC(OC2C(O[C@H]3CC[C@@]4(C)C(=CC[C@H]5[C@@H]6C[C@@H]7O[C@]8(CC[C@@H](C)CO8)[C@@H](C)[C@@H]7[C@@]6(C)CC[C@@H]54)C3)OC(CO)C(O)C2O)C(O)C(O)C1O (stereo not given in full) , thanks.
Reply: 2.77 µM (inactive)

---

Tested on: OVCAR-8
EXPERIMENT_NOTES: NCI tumour cell line growth inhibition, 48 h
The source made the active and inactive calls. Rule as the data show it: active = GI50 up to about 1.1 µM and inactive = higher.
Hi! Could you answer with just one of these? label 1 = active, label 0 = inactive

Ask: # lookup: test call for c1ccc(CC2(c3cc4ccccc4[nH]3)OCCO2)nc1
Reply: label 0

Ask: Also need O=C(NCc1cccnc1)C1COc2cc(-c3cc(=O)c4ccccc4o3)ccc2O1 (configuration not stated) , thanks.
Reply: label 0

Ask: Also need Cc1cc(C)n2c(nc3ccccc32)c1C#N , thanks.
Reply: label 0

Ask: Also need S=C1OC2C3C4CC5C3C(O1)C1C5C4C21 (configuration not stated) , thanks.
Reply: label 0

Ask: Also need Cc1cc2c(s1)C(=O)c1sccc1C2=O , thanks.
Reply: label 1

Ask: Also need CC(=O)O[C@H]1C(=O)[C@@]2(C)C([C@H](OC(=O)c3ccccc3)[C@]3(O)C[C@H](OC(=O)[C@H](O)[C@@H](NC(=O)c4ccc(Cl)cc4)c4ccccc4)C(C)=C1C3(C)C)C1(OC(C)=O)CO[C@@H]1C[C@@H]2O (some centres not stated) , thanks.
Reply: label 1

Ask: Also need COc1ccc(OC)c(SC(CC(=O)c2ccccc2)c2ccccc2)c1 (configuration not stated) , thanks.
Reply: label 0

Ask: Also need NCCCNCCCNCCCN , thanks.
Reply: label 0

Ask: Also need Cc1ccc(S(=O)(=O)N/N=C2\CCC3(O)CC2(C)CCC2C3CC2(C)C)cc1 (configuration not stated) , thanks.
Reply: label 0

Ask: Also need O=C(OC(/C=C/c1ccccc1)P1(=O)N(Cc2ccccc2)[C@@H]2CCCC[C@H]2N1Cc1ccccc1)c1ccccc1 (some centres not stated) , thanks.
Reply: label 0

Ask: Also need O=S(=O)(c1cccc(N=C=S)c1)c1cccc(N=C=S)c1 , thanks.
Reply: label 0

Ask: Also need CN(C)CCNC(=O)c1cccc2ccc(-c3ccc(O)cc3)nc12 , thanks.
Reply: label 0

Ask: Also need CCCCc1ccc(Nc2nc(Cl)c3c(ncn3C3CC(Oc4ccc(C)cc4)C(COc4ccc(C)cc4)O3)n2)cc1 (configuration not stated) , thanks.
Reply: label 0

Ask: Also need CCOC(=O)c1c(SC(=O)c2ccc(OC)cc2)n(-c2ccccc2)c(=S)n(-c2ccccc2)c1=O , thanks.
Reply: label 0

Ask: Also need Cc1cc(O)c(C=O)c2c1C(=O)Oc1c(CO)c(O)c3c(c1O2)C(O)OC3=O (configuration not stated) [SLAZINIC ACID] , thanks.
Reply: label 0

Ask: Also need O=c1[nH]c2ccccc2c2nc3ccccc3n12 , thanks.
Reply: label 0

Ask: Also need COI1NC(=O)c2ccccc21 , thanks.
Reply: label 0

Ask: Also need COc1cc(CCCOC2OC(COC3OCC(O)C(O)C3O)C(O)C(O)C2O)cc2cc(-c3ccc4c(c3)OCO4)oc12 (configuration not stated) , thanks.
Reply: label 0

Ask: Also need O=[N+]([O-])c1cc(Cl)cnc1Br , thanks.
Reply: label 0

Ask: Also need O=C1OC(C2(O)OC(=O)c3ccccc32)c2ccccc21 (configuration not stated) , thanks.
Reply: label 0

Ask: Also need CC(=O)OC1CC2(O)C(CCC3(C)C(c4ccc(=O)oc4)CCC32O)C2(C)C1=CC(O)C1OC12 (configuration not stated) , thanks.
Reply: label 1

Ask: Also need CCOC(=O)c1sc2c(sc(=O)n2-c2ccccc2)c1O , thanks.
Reply: label 0

Ask: Also need O=c1cc(-c2cc(O)c(O)c(-c3c(O)cc4oc(-c5ccc(O)c(O)c5)cc(=O)c4c3O)c2)oc2cc(O)cc(O)c12 , thanks.
Reply: label 0

Ask: Also need O=C(OCc1ccccc1)C(Cc1ccccc1)N(Cc1ccccc1)Cc1ccccc1 (configuration not stated) , thanks.
Reply: label 0

Ask: Also need Cc1cc(O)c(C(C)C)cc1/N=C/c1ccccc1O , thanks.
Reply: label 0

Ask: Also need CCOC(=O)C1=C(C)N(Cc2ccccc2)C2(O)C(OC)CC(=O)C3C(=O)N(c4ccccc4)C(=O)C132 (configuration not stated) , thanks.
Reply: label 0

Ask: Also need C=C1C2CCC3C4(C)CCCC(C)(C(=O)O)C4CCC3(C2)C1OC(=O)/C(C)=C/C (configuration not stated) , thanks.
Reply: label 0

Ask: Also need CN1C(=O)N(C)C2(O)c3ccccc3C(=O)C12O (configuration not stated) , thanks.
Reply: label 0

Ask: Also need CC1(O)CC23CC1CCC2(C)C12CCCC(C)(C(=O)O1)C2CC3O (configuration not stated) , thanks.
Reply: label 0

Ask: Also need CC(C)(C)OC(=O)N(CCCCN(CCCNC(=O)C(F)(F)F)C(=O)OC(C)(C)C)CCCNC(=O)C(F)(F)F , thanks.
Reply: label 0

Ask: Also need CC(C)CCCC(C)C1CCC2C3CC([N+](=O)[O-])=C4CC(O)CCC4(C)C3CCC12C (configuration not stated) , thanks.
Reply: label 0

Ask: Also need COc1cc(C=O)c(-c2c(C=O)ccc3c2OCO3)c(OC)c1OC , thanks.
Reply: label 0

Ask: Also need CCOc1ccc2nc(NC(=O)C(=O)C3C(=O)C(CC4C(=O)c5ccccc5C4=O)C(=O)CC3(C)C)sc2c1 (configuration not stated) , thanks.
Reply: label 0

Ask: Also need CC(C)(CN1CCCCC1)C(=O)CC(SCCS(=O)(=O)O)c1ccccc1 (configuration not stated) , thanks.
Reply: label 0

Ask: Also need CC(=O)CCC(=O)CC(O)(C(F)(F)F)C(F)(F)F , thanks.
Reply: label 0

Ask: Also need CC(C)(C)C1CC[C@H]2c3c([nH]c4ccccc34)[C@H]3C(=O)N(c4ccc(F)cc4)C(=O)[C@H]3[C@H]2C1 (some centres not stated) , thanks.
Reply: label 0

Ask: Also need NC1=C(C(=O)O)C(=O)C(Nc2c(O)cccc2C(=O)O)=CC1=O , thanks.
Reply: label 0

---

Tested on: NCI-H23
EXPERIMENT_NOTES: NCI tumour cell line growth inhibition, 48 h
Activity calls are given as the source filed them. Cut-off read from the data, not from the text of the source: active = GI50 up to about 1.1 µM and inactive = higher.
Hi! Could you answer with just one of these? t = active, f = inactive

Ask: # lookup: test call for O=[N+]([O-])c1ccc(C2=NN(c3ccccc3)C[N+](c3ccc(Br)cc3)=N2)cc1
Reply: f

Ask: Also need NC1=C(C(=O)O)C(=O)C(Nc2c(O)cccc2C(=O)O)=CC1=O , thanks.
Reply: f

Ask: Also need O=P1(c2ccccc2)Nc2ccccc2SSc2ccccc2N1 , thanks.
Reply: f

Ask: Also need COc1cc2c(cc1OC)[C@H]1C(=O)c3cc4c(cc3[C@H]1N(C)C2=O)OCO4 , thanks.
Reply: f

Ask: Also need O=c1cc(-c2cc(O)c(O)c(-c3c(O)cc4oc(-c5ccc(O)c(O)c5)cc(=O)c4c3O)c2)oc2cc(O)cc(O)c12 , thanks.
Reply: f

Ask: Also need CCOc1c2c(cc3c1C(=O)c1c(OC)cccc1C3=O)C=C(OC)CC2 , thanks.
Reply: f

Ask: Also need CN[C@@H](Cc1cccc2ccccc12)C(=O)N[C@@H](CC(C)C)B(O)O , thanks.
Reply: t

Ask: Also need O=c1[nH]nc(-c2ccccc2)n1-n1cnnc1 , thanks.
Reply: f

Ask: Also need CC(=O)CCC(=O)CC(O)(C(F)(F)F)C(F)(F)F , thanks.
Reply: f

Ask: Also need COc1ccc(-c2c(C(C)=O)c(-c3ccccc3)n(C3OC(CO)C(O)C(O)C3O)c(=S)c2C#N)cc1 (stereo unspecified) , thanks.
Reply: f

Ask: Also need CC(C)N1CC2CN(Cc3ccccc3)CC(C1)C2=O , thanks.
Reply: f

Ask: Also need C=CC[C@]1(/C=N/O)CN(S(=O)(=O)CC[Si](C)(C)C)C[C@H]2CC=CC[C@H]21 , thanks.
Reply: f

Ask: Also need O=C(O)C(O)(c1ccc(-c2ccccc2)cc1)c1ccc(-c2ccccc2)cc1 , thanks.
Reply: f

Ask: Also need CSc1ccn(C2CC(F)C(CO)O2)c(=O)n1 (stereo unspecified) , thanks.
Reply: f

Ask: Also need COc1ccc(NCc2cc(OC)c(OC)c(OC)c2)cc1 , thanks.
Reply: t

Ask: Also need O=C(NCc1cccnc1)C1COc2cc(-c3cc(=O)c4ccccc4o3)ccc2O1 (stereo unspecified) , thanks.
Reply: f

Ask: Also need CC(C)c1cccc(C(C)C)c1/N=C(/N)C#N , thanks.
Reply: f

Ask: Also need O=C1OC(C2(O)OC(=O)c3ccccc32)c2ccccc21 (stereo unspecified) , thanks.
Reply: f

Ask: Also need CC(=O)OCCc1cc2ccccc2oc1=O , thanks.
Reply: f

Ask: Also need COc1ccc2c3c([nH]c2c1[N+](=O)[O-])C(C)N(C(=O)/C=C/c1ccccc1)CC3 (stereo unspecified) , thanks.
Reply: f

Ask: Also need C#Cc1cccc(N2C(=O)CC(=P(c3ccccc3)(c3ccccc3)c3ccccc3)C2=O)c1 , thanks.
Reply: f

Ask: Also need CC1CC/C(=C\c2ccc(Cl)cc2)C2OC(N)=C(C#N)C(c3ccc(Cl)cc3)=C12 (stereo unspecified) , thanks.
Reply: f

Ask: Also need CCOC(=O)N1CC2(C(=O)OC)C=CC1C(C(=O)OC)C2 (stereo unspecified) , thanks.
Reply: f

Ask: Also need CC(=O)Nc1ccc(/C=C/C(=O)c2sc(C(N)=S)nc2C)cc1 , thanks.
Reply: f

Ask: Also need CN(C)NC1=C([N+](=O)[O-])C=NN(c2ccccc2)C1 , thanks.
Reply: f

Ask: Also need CC(=O)OC1CC2(O)C(CCC3(C)C(c4ccc(=O)oc4)CCC32O)C2(C)C1=CC(O)C1OC12 (stereo unspecified) , thanks.
Reply: t

Ask: Also need COc1cc(-c2nc3ccccn3c2/N=C/c2cc(Br)cc(Br)c2O)ccc1O , thanks.
Reply: f

Ask: Also need Cn1c(NC(=O)NC23CC4CC(CC(C4)C2)C3)nc2ccccc21 , thanks.
Reply: f

Ask: Also need CC1=C(C(=O)Nc2ccccc2C)C(c2ccc(N(C)C)cc2)C(C(=O)Nc2ccccc2C)=C(C)N1 , thanks.
Reply: f

Ask: Also need CCC(=O)Oc1ccc2c(c1)c(=O)c1c(NCCCN(C)C)ccc3nnn2c31 , thanks.
Reply: f

Ask: Also need OCc1ccc2c(c1)CC1(C2)Cc2cc3c(cc2C1)CCC3 , thanks.
Reply: f

Ask: Also need CCOC(=O)CSc1[nH]c(NC(=S)Nc2ccccc2)c(C(N)=O)c1C(N)=O , thanks.
Reply: f

Ask: Also need COCc1cc2c(cc1/C=C/[N+](=O)[O-])OCO2 , thanks.
Reply: f

Ask: Also need CN1C(=O)N(C)C2(O)c3ccccc3C(=O)C12O (stereo unspecified) , thanks.
Reply: f

Ask: Also need Cc1c2c3cc(O)ccc3nc-2n(C)c2ccccc12 , thanks.
Reply: f

Ask: Also need N#CC(c1ccccc1)N(CCc1ccccc1)C(=O)c1ccc(C(=O)N(CCc2ccccc2)C(C#N)c2ccccc2)cc1 (stereo unspecified) , thanks.
Reply: f

Ask: Also need COc1ccc(C2=C[C@]3(O)CCCN3C[C@@H]2c2ccc(OC)c(OC)c2)cc1 , thanks.
Reply: t

Ask: Also need Cc1cc2c(cc1-c1cc3c(cc1C)C(C(C)C)=C(O)C(=O)/C3=C\Nc1c(C)n(C)n(-c3ccccc3)c1=O)/C(=C/Nc1c(C)n(C)n(-c3ccccc3)c1=O)C(=O)C(O)=C2C(C)C , thanks.
Reply: f

Ask: Also need O=C(O)[C@@H](NS(=O)(=O)c1ccc2ccccc2c1)c1ccccc1 , thanks.
Reply: f

Ask: Also need N=C(N)NS(=O)(=O)c1ccc(N/N=C2/CCOC2=O)cc1 , thanks.
Reply: f

Ask: Also need COC(=O)/C=C/c1cc(O)c2c(c1)[C@H](C(=O)OC)[C@@H](c1ccc(O)c(O)c1)O2 , thanks.
Reply: t
